Value source: PubChem BioAssay AID1508600

measurement-protocol: Components of the Cytosolic LPS Sensing Pathway: Gene Identification via Genome-wide siRNA Screen
study-conditions: RAW264.7 macrophages, IL-1a HTRF, actives lie on both sides, screened at 100 nM (by protocol), cells primed 5 h with Pam3CSK4 first
The whole screen tested about 53,000 sequences, of which about 3,700 (7%) were called active.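 The calls were made as follows: active = gene knockdowns whose robust z-score for IL-1 alpha signal is at least 2 or at most -2, so actives lie on both sides; inactive = the rest.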 Many of the other results were omitted from the sample, so actives are more common in it than they were.
Respond using exactly one of the listed classes: t (active), f (inactive)

Which outcome was assigned to GGGCAAUUAGUAAAGGCUATT against Eif2s3x in this test?
t

Which outcome was assigned to GGAGAUCCGGAAUUUUUAATT against Per2 in this test?
f

Which outcome was assigned to GCAAGGAUCCACGCUUUUCTT against Ckmt2 in this test?
f

Which outcome was assigned to GCUACUAAACAGGGUGUGATT against Gpsm3 in this test?
t

Which outcome was assigned to GGUGAUUAGCAAUCAUCAGTT against Zfp942 in this test?
f

* * *

measurement-protocol: Components of the Cytosolic LPS Sensing Pathway: Gene Identification via Genome-wide siRNA Screen;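 also: robust z of the log signal after scaling to non-targeting control siRNA wells of the plate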
study-conditions: RAW264.7 macrophages, IL-1a HTRF, actives lie on both sides, screened at 100 nM (by protocol), cells primed 5 h with Pam3CSK4 first
Screen size: about 53,000 sequences; about 3,700 (7%) were called active. This excerpt belongs to a sample that is enriched for actives.
measurement-type: z-score

Below: 6 sequences and their reported z-score.
sequence-content	z-score
GGAUAUCCUUACAAGGACCTT against Tmco3	-0.646 (inactive)
GGUCUUUAGAAUUAGGCUCTT against Pml	0.188 (inactive)
GCAGCAUGCCUGAAUAUUUTT against Prcp	0.172 (inactive)
GGGCUGGUCAUUUACUAAGTT against Cdh22	1.32 (inactive)
GCUUUCCGGAAUACGAGCUTT against Snapc3	-0.638 (inactive)
GCAGAAGUUAAGAUGCAUATT against Usf1	2.02 (active)

Please report z-score for every entry that follows.
1. GCAAGAAAACCUUAGCUCATT against Trpm2
2. GCGCCUUAACCAAGAAGUUTT against Cox18
3. GGAGAACAAGGCAAAAGAATT against Mindy4
4. GGAUGAACCAAGCUACUGCTT against Gba2
5. GCAAUAGUGAGCACGCCAGTT against Col18a1
6. GGAGCUAGAACUCAAUGAATT against Lingo1
7. GCAUUGUGAAUAUUCAGAUTT against Cers4

1: -0.518 (inactive); 2: 2.84 (active); 3: -0.945 (inactive); 4: -0.541 (inactive); 5: 0.307 (inactive); 6: 0.65 (inactive); 7: 0.623 (inactive)

Please report z-score for every entry that follows.
1. GGAAAAAUUUAGACAGCACTT against Csrp2
2. CCAUACCAAUGAAUGCCUCTT against Fas
3. GGUAAUAACCCUUAAUAAGTT against Akirin2
4. GGAUACCUGAAAAUUGAUATT against Npr1
5. GGUUUUAGUAAACUUCCCATT against Fam76b
6. GGCCUACCACCUUCAGAAGTT against Rpl37
7. GGGUCAUCCACUUUGUCAGTT against Fam177a
8. GGACAGAGCGUGCACUAGATT against Slc66a1

1. 0.132 (inactive)
2. -1.4 (inactive)
3. 0.572 (inactive)
4. -0.667 (inactive)
5. -0.692 (inactive)
6. 2.01 (active)
7. -0.584 (inactive)
8. -1.32 (inactive)

Please report z-score for every entry that follows.
1. GGUUAACAUUUUCAGUCAUTT against Itga2
2. GCAACACCAGAGUAUGUUATT against Cldn34b3
3. GAGGGACUGUAAUGUUGACTT against Olfr560
4. CGCAUAUCUAGAAUGGUUATT against 2810021J22Rik
5. GGAAUAUGUUUAGCAUCUGTT against Mfsd5
6. CCAAGUAUAGCUCACAUAATT against Slc17a4
7. GGAAAUGGAGAAAUAUGCATT against Plod3
8. GGAAUGAAACCAAGUAUAATT against Calcb

1. -0.986 (inactive)
2. 0.794 (inactive)
3. 0.0877 (inactive)
4. 1.74 (inactive)
5. -0.437 (inactive)
6. -1.7 (inactive)
7. -0.167 (inactive)
8. 0.853 (inactive)

* * *

measurement-protocol: Components of the Cytosolic LPS Sensing Pathway: Gene Identification via Genome-wide siRNA Screen;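 also: robust z of the log signal after scaling to non-targeting control siRNA wells of the plate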
study-conditions: RAW264.7 macrophages, IL-1a HTRF, actives lie on both sides, screened at 100 nM (by protocol), cells primed 5 h with Pam3CSK4 first
The campaign covered roughly 53,000 sequences. About 3,700 (7%) were called active.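 Rule for the calls: active = gene knockdowns whose robust z-score for IL-1 alpha signal is at least 2 or at most -2, so actives lie on both sides; inactive = the rest.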 The sample as a whole holds a higher share of actives than the screen did.
Respond using exactly one of the listed classes: active, inactive

Consider the following illustrative entries.
sequence-content	category
GGAGUUCGCACAGAAAUUCTT against Dhdh	inactive
GGCCUACAUCAUUCACUCCTT against Olfr64	inactive
GGCACUCCUCUUUGUUUUCTT against Olfr414	inactive
GGAAGAGGGCAAAAAUGGCTT against Sgms2	inactive

Which outcome was assigned to GCUCAAACACUUACACACUTT against Alcam in this test?
inactive

Which outcome was assigned to CCAUCUAUUACGGAACGGGTT against Olfr324 in this test?
inactive

Which outcome was assigned to GGAGUUUGGUAAAAUUGACTT against Dhrs7 in this test?
inactive

Which outcome was assigned to GGCUUCCAUUACCAUGAUGTT against Olfr381 in this test?
inactive

Which outcome was assigned to CCCUAUUAGUGGAAGCAUGTT against Zfp738 in this test?
inactive

Which outcome was assigned to GGAACUGCCAUUGUAUGGGTT against Myo1g in this test?
inactive

Which outcome was assigned to GAGAUGUCCGAAAUGCCAATT against Smco4 in this test?
inactive

Which outcome was assigned to GGCAUCUUAUGGCCUAAAATT against Rnf31 in this test?
inactive

Which outcome was assigned to GGUCUACUUUUACGUCUCCTT against Nfatc4 in this test?
inactive

Which outcome was assigned to UGGGAAGGUGCUCACUGAGTT against Dnph1 in this test?
active

* * *

measurement-protocol: Components of the Cytosolic LPS Sensing Pathway: Gene Identification via Genome-wide siRNA Screen;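 also: robust z of the log signal after scaling to non-targeting control siRNA wells of the plate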
study-conditions: RAW264.7 macrophages, IL-1a HTRF, actives lie on both sides, screened at 100 nM (by protocol), cells primed 5 h with Pam3CSK4 first
Out of some 53,000 sequences screened, about 3,700 (7%) were called active. The entries come from a sample that favours actives as a whole.
measurement-type: z-score
Give bare numbers.

sequence-content	z-score
GGUUAUCCAACCUAGAAUATT against Tmlhe	0.74
GGGAGAUUAAUCAAGAACUTT against Ccnc	0.809
GGCUCUCUGGCUUACUAAGTT against Mrpl37	1.09
GGUAUGAUCAAUGACUUACTT against Serpine1	-0.165

Please report z-score for every entry that follows.
1. GGUGUUGUUUCGAAUUAUUTT against Xrn1
2. GGCCCAACACCUUUAUCAUTT against Akt1
3. GGGAAUUUGGUAUCAAUUUTT against Epgn
4. GCAGUCCUCGUCCUCAAAGTT against Btbd10
5. GGGAAGAAAGACUCAAACUTT against Dcdc2a
6. GGGCUAAUGAGAUAGGUUUTT against Slc19a2

1: 0.44; 2: 2.77; 3: 1.7; 4: 2.16; 5: 0.919; 6: 2.18

Please report z-score for every entry that follows.
1. CGAUCCCUGUCUGUUGGAUTT against Spint4
2. GGUAUCAUCUAUAGAGACUTT against Prkch
3. CCAAAAGAGUUUUACAGGGTT against Lhx9
4. CCAUGUGCGACCUGAUAAUTT against Cmtm7
5. CCUAUGUUUUAGCAAGCAGTT against Acyp2
6. GCUUCUGUGGGCAACAGUUTT against Cryba1
7. GCUCAGUCAUGUGACCGCATT against Fbxl18
8. CGAUCGAUAAAUGUAAUGATT against Heatr5a

[0.944, -0.265, -0.119, 0.155, 0.758, 0.0577, 2.93, -0.0662]

Please report z-score for every entry that follows.
1. GGCUUUCAUUCUGCAGCUATT against Olfr1089
2. UGUGACUAUUGUUACUGUGTT against Olfr1512
3. GACAAGAACCCGGAUAAUATT against Dnajb2

-2.13
-1.06
-0.229

* * *

measurement-protocol: Components of the Cytosolic LPS Sensing Pathway: Gene Identification via Genome-wide siRNA Screen;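 also: robust z of the log signal after scaling to non-targeting control siRNA wells of the plate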
study-conditions: RAW264.7 macrophages, IL-1a HTRF, actives lie on both sides, screened at 100 nM (by protocol), cells primed 5 h with Pam3CSK4 first
The whole screen tested about 53,000 sequences, of which about 3,700 (7%) were called active. Shown is part of a subset that was picked to be rich in actives.
measurement-type: z-score
Numbers only.

Below: 5 sequences and their reported z-score.
sequence-content	z-score
GGCUAGAUGACAACCGCAUTT against Flrt1	1.13
GCCUUUAUAGGAUUUCAAATT against Ppp2r5e	0.678
GGGCUAAAUUAAGCUUCUATT against Sowahd	-0.707
GGUUGUAGGAGAGGAAGCCTT against Apobr	-0.572
GGAGCAUUCAAAUUACAUCTT against Ccni	4.62

Please report z-score for every entry that follows.
1. CCCAGCUCAGGUUUCUAUGTT against Dact2
2. GCUUGUGGAUUCGAUUUGGTT against Gtf3c5

0.0333
0.485
